measurement_target: DCAF1 WD40 domain (residues 1077-1390) (Homo sapiens)
Construct: DCAF1 WD40 domain (residues 1077-1390)
measurement_protocol: DCAF1 binding assay by SPR (Biacore 8K+), DCAF1-3 KD
setup_conditions: 25 °C, read-out: DCAF1-3 SPR (KD)
Reported values of Kd for individual entries
parameter: Kd

INSERT INTO results (molecule, value) VALUES
  ('c1cc(N2CCC[C@@H](Nc3nccc(N4CCOCC4)n3)C2)c2ccncc2c1 [I-55]', '100 to 200 µM'),
  ('c1ccc(-c2cc(N3CCC[C@@H](Nc4cc(N5CCOCC5)ccn4)C3)ccn2)nc1 [I-437]', '10 to 100 µM'),
  ('NC(=O)N1Cc2ccc(N3CCC[C@@H]4[C@H]3CCN4c3cc(N4CCCCC4)ccn3)cc2C1 [I-957]', '10 to 100 µM'),
  ('Cc1ccc(CCCOCCOCCOCCOCCOCCN)c(F)c1-c1c(C(=O)N[C@@H](CC(N)=O)c2cccc(Cl)c2)c[nH]c1C#N [I-978]', '< 10 µM'),
  ('Fc1cccc(N2CCC[C@@H](Nc3cnnc(N4CCOCC4)c3)C2)c1 [I-381]', '> 200 µM'),
  ('C=CC(=O)NC1CCCN(c2ccnc(N[C@@H]3CCCN(c4cccc(F)c4)C3)c2)C1 (some centres unmarked) [I-454]', '100 to 200 µM'),
  ('Fc1cccc(N2CCC[C@@H](n3ccc(N4CCOCC4)c4ccnc3-4)C2)c1 [I-58]', '10 to 100 µM'),
  ('Cc1ccc(F)c(C)c1-c1c(C(=O)N[C@@H](CC(N)=O)c2cccc(Cl)c2)c[nH]c1C(=O)COCCOCCOCCOCCOCCNC(=O)C[C@@H]1N=C(c2ccc(Cl)cc2)c2c(sc(C)c2C)-n2c(C)nnc21 [I-909]', '< 10 µM'),
  ('NC(=O)C[C@H](NC(=O)c1c[nH]nc1-c1ccc2[nH]cnc2c1)c1cccc(Cl)c1 [I-240]', '> 200 µM'),
  ('NC(=O)[C@@H]1CC[C@H](Nc2cc(N3CCCCC3)ccn2)CN1c1cccc(F)c1 [I-1027]', '10 to 100 µM'),
  ('CCCCN1CCN(c2cc(N[C@@H]3CCCN(c4cccc(F)c4)C3)ncn2)CC1 [I-377]', '> 200 µM'),
  ('OC[C@@H]1CCN(c2cccc(F)c2)C[C@@H]1Nc1cc(N2CCCCC2)ccn1 [I-988]', '100 to 200 µM'),
  ('O=C(O)CN(c1cc(N2CCOCC2)ccn1)[C@@H]1CCCN(c2cccc(F)c2)C1 [I-286]', '> 200 µM'),
  ('Oc1ccc(F)cc1N1CCC[C@@H]2[C@H]1CCN2c1cc(N2CCCCC2)ccn1 [I-812]', '10 to 100 µM'),
  ('C=CC(=O)Nc1ccc(-c2[nH]ncc2C(=O)N[C@H](CC(N)=O)c2cccc(Cl)c2)cc1 [I-536]', '> 200 µM'),
  ('c1ccc2c(N3CCC[C@@H](Nc4cc(N5CCOCC5)ncn4)C3)cccc2c1 [I-388]', '> 200 µM'),
  ('NC(=O)C[C@H](NC(=O)c1c[nH]cc1-c1ccccc1F)c1cccc(Cl)c1 [I-90]', '< 10 µM'),
  ('C=CC(=O)NCCC1CCN(c2ccnc(N3CC[C@H]4[C@@H]3CCCN4c3cccc(F)c3)c2)CC1 [I-672]', '< 10 µM'),
  ('Fc1cccc(N2CCC[C@@H](Nc3cc(N4CC5CCC(C5)C4)ccn3)C2)c1 [I-553]', '< 10 µM'),
  ('Fc1cccc(N2CCC[C@@H](Nc3nc(N4CCOCC4)c[nH]3)C2)c1 [I-326]', '> 200 µM'),
  ('c1ccc(Oc2cncc(N3CCC[C@@H](Nc4cc(N5CCOCC5)ccn4)C3)c2)cc1 [I-436]', '10 to 100 µM'),
  ('Fc1cccc(N2C[C@H](Nc3cc(N4CCOCC4)ncn3)C3CCC[C@H]2C3)c1 (stereo in doubt) [I-384]', '> 200 µM'),
  ('c1ccc(Cn2ccc3c(N4CCC[C@@H](Nc5cc(N6CCOCC6)ccn5)C4)ncnc32)cc1 [I-680]', '100 to 200 µM'),
  ('Cc1ccc([C@H](CC(N)=O)NC(=O)c2cn[nH]c2-c2ccccc2F)cc1 [I-101]', '10 to 100 µM'),
  ('C=CC(=O)N(C)CCCN(C)c1ccnc(N[C@@H]2CCCN(c3cccc(F)c3)C2)c1 [I-462]', '10 to 100 µM'),
  ('Fc1cc2ccccc2c(N2CCC[C@@H](Nc3cc(N4CCOCC4)ccn3)C2)n1 [I-72]', '100 to 200 µM'),
  ('COc1cnc(N2CCOCC2)cc1N[C@@H]1CCCN(c2cccc(F)c2)C1 [I-407]', '> 200 µM'),
  ('O[C@H]1CCCN(c2ccnc(N3CC[C@H]4[C@@H]3CCCN4c3cccc(F)c3)c2)C1 [I-797]', '10 to 100 µM'),
  ('NC(=O)C[C@H](NC(=O)c1cnc(N)cc1-c1ccccc1F)c1cccc(Cl)c1 [I-589]', '> 200 µM');

====

measurement_target: DCAF1 WD40 domain (residues 1077-1390) (Homo sapiens, UniProt Q9Y4B6)
Construct: DCAF1 WD40 domain (residues 1077-1390)
Sequence (Q9Y4B6 1077-1390): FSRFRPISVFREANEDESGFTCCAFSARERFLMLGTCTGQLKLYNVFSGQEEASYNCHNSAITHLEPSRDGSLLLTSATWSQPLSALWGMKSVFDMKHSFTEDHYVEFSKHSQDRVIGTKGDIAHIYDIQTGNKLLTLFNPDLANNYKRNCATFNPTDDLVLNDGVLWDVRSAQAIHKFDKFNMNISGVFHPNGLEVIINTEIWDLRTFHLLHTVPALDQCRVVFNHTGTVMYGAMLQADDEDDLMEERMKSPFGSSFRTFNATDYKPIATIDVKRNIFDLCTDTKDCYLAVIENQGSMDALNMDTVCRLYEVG
measurement_protocol: DCAF1 binding assay by SPR (Biacore 8K+), DCAF1-3 KD
setup_conditions: 25 °C, read-out: DCAF1-3 SPR (KD)
Reported values of Kd for individual entries
parameter: Kd

INSERT INTO results (molecule, parameter, value) VALUES
  ('Fc1cccc(N2CCC[C@@H](Nc3cc(N4CC5CC(C5)C4)ccn3)C2)c1', 'Kd', '< 10 µM'),
  ('Fc1cccc(N2CCCC(Nc3nccc(N4CCCCC4)n3)C2)c1 (stereo not drawn)', 'Kd', '100 to 200 µM'),
  ('O=C1NCCN1Cc1cccc(N2CCC[C@@H]3[C@H]2CCN3c2cc(N3CCCCC3)ccn2)c1', 'Kd', '10 to 100 µM'),
  ('NC(=O)C[C@H](NC(=O)c1cn(Cc2ccccc2)nc1-c1ccccc1F)c1cccc(Cl)c1', 'Kd', '> 200 µM'),
  ('NC(=O)CC1(NC(=O)c2cn[nH]c2-c2ccccc2F)CCCc2c(Cl)cccc21 (stereo not drawn)', 'Kd', '> 200 µM'),
  ('O=C(N[C@@H](c1cnoc1)c1cccc(Cl)c1)c1c[nH]nc1-c1ccccc1F', 'Kd', '> 200 µM'),
  ('NC(=O)C[C@H](NC(=O)c1n[nH]c2ccccc12)c1cccc(Cl)c1', 'Kd', '> 200 µM'),
  ('c1ccc(N2CCC[C@@H](Nc3cc(N4CCOCC4)ncn3)C2)cc1', 'Kd', '100 to 200 µM'),
  ('NC(=O)C[C@H](NC(=O)[C@H]1C[C@@](O)(c2ccccc2)C1)c1cccc(Cl)c1', 'Kd', '> 200 µM'),
  ('NC(=O)C[C@H](NC(=O)c1c[nH]nc1-c1cccc2nc[nH]c12)c1cccc(Cl)c1 [I-355]', 'Kd', '10 to 100 µM'),
  ('c1ccc(COc2cccc(N3CCC[C@@H](Nc4cc(N5CCOCC5)ccn4)C3)c2)cc1', 'Kd', '> 200 µM'),
  ('Cn1cnc(C[C@H](O)C(=O)N[C@@H](CC(N)=O)c2cccc(Cl)c2)c1', 'Kd', '> 200 µM'),
  ('c1cnc2cc(N3CCC[C@@H](Nc4cc(N5CCOCC5)ncn4)C3)ccc2c1', 'Kd', '> 200 µM'),
  ('Fc1cccc(N2CCC[C@@H](Nc3cc(N4CCC5CCC4C5)ccn3)C2)c1 (stereo partly drawn)', 'Kd', '10 to 100 µM'),
  ('C=CC(=O)Nc1ccc2[nH]cc(C(=O)N[C@@H](CC(N)=O)c3cccc(Cl)c3)c2c1', 'Kd', '> 200 µM'),
  ('O=C(O)C1C(Nc2cc(N3CCOCC3)ccn2)CCCN1c1cccc(F)c1 (stereo not drawn)', 'Kd', '10 to 100 µM'),
  ('Fc1cccc(N2CCC[C@@H]3[C@H]2CCCN3c2cc(N3CCCCC3)ccn2)c1', 'Kd', '> 200 µM'),
  ('CS(=O)(=O)Cc1ccc(F)c(-c2[nH]ncc2C(=O)N[C@@H](CC(N)=O)c2cccc(Cl)c2)c1', 'Kd', '> 200 µM'),
  ('NC(=O)C[C@@H](NC(=O)c1cn[nH]c1-c1ncccc1F)c1cccc(Cl)c1', 'Kd', '10 to 100 µM'),
  ('NC(=O)CC(NC(=O)c1cn[nH]c1-c1c(F)cc(Cl)cc1F)c1ccc(F)c(Cl)c1 (stereo not drawn)', 'Kd', '< 10 µM'),
  ('CN1CCN(c2cc(N[C@@H]3CCCN(c4cccc(F)c4)C3)ncn2)CC1', 'Kd', '> 200 µM');
